target: T1, CD3ε homodimer protein (human, UniProt P07766 23-126, limits assumed, sulfo-tag or biotin label in some ECL assays); assay: SPR, CD3ε homodimer on chip;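 note: biacore SPR with antibody variants flowed as analyte over amine-coupled CD3ε homodimer on a CM chip, bound amount of each single-residue H chain variant over that of parent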
T1 construct: also called human CD3ε homodimer protein; CD3 (CD3ε)
T1 sequence (P07766 23-126 limits assumed): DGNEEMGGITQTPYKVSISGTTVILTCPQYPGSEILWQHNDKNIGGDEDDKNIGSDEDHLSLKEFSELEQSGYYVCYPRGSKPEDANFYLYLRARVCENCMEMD
The following binders are listed with their measured ratio of amounts bound vs CE115HA000 values.
Output: the number by itself.

Worked set:
1) CE115HA000 D101A (antibody, name in Kabat numbering, V domains shown) VH: QVQLVESGGGVVQPGRSLRLSCAASGFTFSNAWMHWVRQAPGKGLEWVAQIKAKSNNYATYYAESVKGRFTISRDDSKNSLYLQMNSLKTEDTAVYYCRYVHYGAYYGVAAWGQGTTVTVSS VL: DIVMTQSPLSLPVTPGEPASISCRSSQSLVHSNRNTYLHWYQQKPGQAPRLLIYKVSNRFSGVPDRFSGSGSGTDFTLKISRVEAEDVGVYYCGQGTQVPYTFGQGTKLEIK | 1.26
2) CE115HA000 A52aP (antibody, name in Kabat numbering, V domains shown) VH: QVQLVESGGGVVQPGRSLRLSCAASGFTFSNAWMHWVRQAPGKGLEWVAQIKPKSNNYATYYAESVKGRFTISRDDSKNSLYLQMNSLKTEDTAVYYCRYVHYGAYYGVDAWGQGTTVTVSS VL: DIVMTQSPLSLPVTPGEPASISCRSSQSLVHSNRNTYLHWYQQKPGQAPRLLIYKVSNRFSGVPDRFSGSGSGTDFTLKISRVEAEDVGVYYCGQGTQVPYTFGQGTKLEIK | 0.15

Which ratio of amounts bound vs CE115HA000 value is on record for CE115HA000 H96P (antibody, name in Kabat numbering, V domains shown) VH: QVQLVESGGGVVQPGRSLRLSCAASGFTFSNAWMHWVRQAPGKGLEWVAQIKAKSNNYATYYAESVKGRFTISRDDSKNSLYLQMNSLKTEDTAVYYCRYVPYGAYYGVDAWGQGTTVTVSS VL: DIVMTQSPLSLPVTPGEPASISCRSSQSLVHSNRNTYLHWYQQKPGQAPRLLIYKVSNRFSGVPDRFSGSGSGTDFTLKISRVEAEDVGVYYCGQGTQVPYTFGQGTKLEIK ?
0.12

Which ratio of amounts bound vs CE115HA000 value is on record for CE115HA000 D101I (antibody, name in Kabat numbering, V domains shown) VH: QVQLVESGGGVVQPGRSLRLSCAASGFTFSNAWMHWVRQAPGKGLEWVAQIKAKSNNYATYYAESVKGRFTISRDDSKNSLYLQMNSLKTEDTAVYYCRYVHYGAYYGVIAWGQGTTVTVSS VL: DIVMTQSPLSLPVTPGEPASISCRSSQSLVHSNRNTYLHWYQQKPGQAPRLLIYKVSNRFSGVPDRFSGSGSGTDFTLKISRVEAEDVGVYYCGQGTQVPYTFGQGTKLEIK ?
1.18

Which ratio of amounts bound vs CE115HA000 value is on record for CE115HA000 H35N (antibody, name in Kabat numbering, V domains shown) VH: QVQLVESGGGVVQPGRSLRLSCAASGFTFSNAWMNWVRQAPGKGLEWVAQIKAKSNNYATYYAESVKGRFTISRDDSKNSLYLQMNSLKTEDTAVYYCRYVHYGAYYGVDAWGQGTTVTVSS VL: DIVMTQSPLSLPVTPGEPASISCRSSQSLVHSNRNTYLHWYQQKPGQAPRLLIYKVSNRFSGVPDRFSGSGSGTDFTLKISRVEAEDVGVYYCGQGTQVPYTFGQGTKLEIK ?
0.35

Which ratio of amounts bound vs CE115HA000 value is on record for CE115HA000 S52cL (antibody, name in Kabat numbering, V domains shown) VH: QVQLVESGGGVVQPGRSLRLSCAASGFTFSNAWMHWVRQAPGKGLEWVAQIKAKLNNYATYYAESVKGRFTISRDDSKNSLYLQMNSLKTEDTAVYYCRYVHYGAYYGVDAWGQGTTVTVSS VL: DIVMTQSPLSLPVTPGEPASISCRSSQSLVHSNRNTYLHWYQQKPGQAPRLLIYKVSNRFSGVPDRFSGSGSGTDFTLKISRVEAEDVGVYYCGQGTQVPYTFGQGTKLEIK ?
0.98

Which ratio of amounts bound vs CE115HA000 value is on record for CE115HA000 G98F (antibody, name in Kabat numbering, V domains shown) VH: QVQLVESGGGVVQPGRSLRLSCAASGFTFSNAWMHWVRQAPGKGLEWVAQIKAKSNNYATYYAESVKGRFTISRDDSKNSLYLQMNSLKTEDTAVYYCRYVHYFAYYGVDAWGQGTTVTVSS VL: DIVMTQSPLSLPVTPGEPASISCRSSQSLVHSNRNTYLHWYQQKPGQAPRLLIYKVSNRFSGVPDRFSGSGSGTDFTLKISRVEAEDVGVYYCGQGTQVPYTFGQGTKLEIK ?
1.58

Which ratio of amounts bound vs CE115HA000 value is on record for CE115HA000 N54S (antibody, name in Kabat numbering, V domains shown) VH: QVQLVESGGGVVQPGRSLRLSCAASGFTFSNAWMHWVRQAPGKGLEWVAQIKAKSNSYATYYAESVKGRFTISRDDSKNSLYLQMNSLKTEDTAVYYCRYVHYGAYYGVDAWGQGTTVTVSS VL: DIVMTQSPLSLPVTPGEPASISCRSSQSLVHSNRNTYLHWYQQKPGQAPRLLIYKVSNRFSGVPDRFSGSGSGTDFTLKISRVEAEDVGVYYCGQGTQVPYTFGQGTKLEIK ?
0.84

Which ratio of amounts bound vs CE115HA000 value is on record for CE115HA000 K52bQ (antibody, name in Kabat numbering, V domains shown) VH: QVQLVESGGGVVQPGRSLRLSCAASGFTFSNAWMHWVRQAPGKGLEWVAQIKAQSNNYATYYAESVKGRFTISRDDSKNSLYLQMNSLKTEDTAVYYCRYVHYGAYYGVDAWGQGTTVTVSS VL: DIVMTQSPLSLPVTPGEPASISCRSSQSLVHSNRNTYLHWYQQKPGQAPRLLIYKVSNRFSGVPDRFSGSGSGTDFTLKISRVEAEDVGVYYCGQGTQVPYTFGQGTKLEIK ?
0.6

Which ratio of amounts bound vs CE115HA000 value is on record for CE115HA000 Q50D (antibody, name in Kabat numbering, V domains shown) VH: QVQLVESGGGVVQPGRSLRLSCAASGFTFSNAWMHWVRQAPGKGLEWVADIKAKSNNYATYYAESVKGRFTISRDDSKNSLYLQMNSLKTEDTAVYYCRYVHYGAYYGVDAWGQGTTVTVSS VL: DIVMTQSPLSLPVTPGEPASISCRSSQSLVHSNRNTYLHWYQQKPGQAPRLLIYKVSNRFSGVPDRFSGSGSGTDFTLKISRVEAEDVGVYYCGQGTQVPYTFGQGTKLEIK ?
0.27
